- System: OVCAR-5 ovarian
- Experiment notes: NCI tumour cell line growth inhibition, 48 h
Parameter: TGI

Solved entries:
{"columns": ["Molecule", "Assayed system", "TGI"],
 "data": [
  ["COc1ccc(P2(=S)Oc3ccccc3-c3ccccc3O2)cc1", "OVCAR-5 ovarian", "> 100 µM"],
  ["C1CSCCSCCSCCSC1", "OVCAR-5 ovarian", "> 100 µM"]
]}

Could you tell me TGI for each of these molecules? They are listed below.
1. Cc1ccc(N2C(=O)C=C(C3=C(O)C(=O)N(c4ccc(C)cc4)C3=O)C2=O)cc1
2. CCO/C=N\c1c(C#N)c(-c2ccc(Cl)cc2)cn1-c1ccc(C)cc1
3. COc1ccc(NC([Se])=NC23CC4CC(CC(C4)C2)C3)cc1
4. Cc1cc(=O)oc2c(C)c(O)ccc12
5. Cc1nc(C(N)=S)sc1C(=O)CC(=O)C(=O)Nc1ccccc1[N+](=O)[O-]
6. CCn1c(SCC(=O)N/N=C/c2ccccc2)nc2ccccc2c1=O
7. O=C(c1ccccc1)c1c(-c2ccccc2)sc2nc3ccccc3nc12

["> 100 µM", "> 100 µM", "4.68 µM", "> 100 µM", "> 100 µM", "> 100 µM", "> 100 µM"]

Could you tell me TGI for each of these molecules? They are listed below.
1. COc1cc2cc3c4cc(OC)c(OC)cc4cc[n+]3cc2cc1OC
2. COc1ccc(-c2c3c(cc4cc5c(cc24)OCO5)C(=O)OC3)cc1OC
3. CC(C)(Oc1ccccc1)C(=O)Sc1c(-c2ccccc2)c(=O)n(-c2ccccc2)c(=S)n1-c1ccccc1
4. CSC1=Nc2ccccc2-c2nc3ccccc3cc2C1
5. Cc1cccc(C)c1CO
6. CCCCCCc1ccc(C(=O)NO)cc1
7. CNC/C(Cl)=N/S(=O)(=O)c1ccc(C)cc1

1. > 100 µM
2. > 100 µM
3. > 100 µM
4. > 100 µM
5. > 100 µM
6. > 100 µM
7. 47.5 µM
